Values from patent US20260001928A1

Target Or System: human corticotropin-releasing factor 2a (CRF2a receptor) (human), Q13324
Sequence (Q13324 20-411): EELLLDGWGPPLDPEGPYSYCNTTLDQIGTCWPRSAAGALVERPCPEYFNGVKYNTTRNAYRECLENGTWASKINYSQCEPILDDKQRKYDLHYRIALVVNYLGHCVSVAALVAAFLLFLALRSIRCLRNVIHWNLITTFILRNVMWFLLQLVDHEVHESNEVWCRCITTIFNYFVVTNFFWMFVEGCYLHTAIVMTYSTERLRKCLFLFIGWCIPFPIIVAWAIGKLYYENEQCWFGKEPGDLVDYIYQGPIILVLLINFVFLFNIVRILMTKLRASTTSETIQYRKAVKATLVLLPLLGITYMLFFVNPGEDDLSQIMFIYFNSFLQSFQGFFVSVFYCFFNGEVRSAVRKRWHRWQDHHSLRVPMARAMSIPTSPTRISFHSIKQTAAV
Protocol Notes: cell-based or functional assay
*1 amine or outer side, *2 acyl side, *3 side chain or, on linkers, in order; H or OH if unused. Primed or numbered codes have the meaning given here. Where no end group is shown, it is not given here. Side-chain parts run from the residue outwards. [ ]: non-standard residue; d: D form. The star is where a group is joined. Thp′ = 4-amino-tetrahydro-2H-pyran-4-yl-acetic acid, O=C(CC1(N[*:1])CCOCC1)[*:2]; C20 diacid = O=C(O)CCCCCCCCCCCCCCCCCCC(=O)*; C18 diacid = O=C(O)CCCCCCCCCCCCCCCCC(=O)*; C16 diacid = O=C(O)CCCCCCCCCCCCCCC(=O)*; γGlu = O=C(O)[C@H](CCC(=O)[*:2])N[*:1]; C14 diacid = O=C(O)CCCCCCCCCCCCC(=O)*; αMeL = CC(C)C[C@](C)(N)C(=O)O; αMeK = C[C@](N)(CCCCN)C(=O)O; Thp″ = not defined here; Pentanoyl = CCCCC(=O)*; AEEA = NCCOCCOCC(=O)O; Aib = CC(C)(N)C(=O)O
EC50 [nM] (cAMP) less than 0.4 nM is Satisfied; EC50 [nM] (cAMP) greater than or equal to 0.4 nM is Not satisfied.

Recorded results for 5 binders are shown here.
VLSLD[dV]PIKLK([γGlu-C16 diacid])QILLKQERQKKQREQAEKNKQILEQV-NH2 [SEQ ID NO 4] = Not satisfied
Ac-IVLSLD[dV]PIKLK([γGlu-C20 diacid])KILLEQEKQKKQREQAETN[Thp′]QILAQV-NH2 [SEQ ID NO 210] = Satisfied
Ac-IVLSLD[dV]PIKLK([AEEA-AEEA-γGlu-C18 diacid])KILLEQEKQKKQREQAETN[αMeK]QILAQV-NH2 (not fully specified) [SEQ ID NO 106] = Satisfied
Ac-IVLSLD[dV]PIKLK([γGlu-C18 diacid])KILLEQEKQKKQREQAETN[Thp″]QILAQV-NH2 (not fully specified; reading uncertain) [SEQ ID NO 199] = Satisfied
IVLSLDVPIKLK([AEEA-AEEA-γGlu-C18 diacid])KILLEQEKQKKQREQAETNKQILAQV-NH2 (not fully specified (residue 7); printed as IVLSLDVPIKLK*KILLEQEKQKKQREQAETNKQILAQV-NH2) [SEQ ID NO 149] = Not satisfied

Qu. hey, is EC50 [nM] (cAMP) for Ac-IVLSLD[dV]PIKLK([AEEA-γGlu-γGlu-C14 diacid])KILLEQEKQKKQREQAETN[Aib]QILAQV-NH2 [SEQ ID NO 174] lower than 0.4 nM or not?
Ans. Not satisfied

Qu. hey, is EC50 [nM] (cAMP) for Ac-IVLSLD[dV]PIKLK([γGlu-C16 diacid])KILLEQEKQK[Aib]QREQAETN[Aib]QILAQV-NH2 [SEQ ID NO 162] lower than 0.4 nM or not?
Ans. Not satisfied

Qu. hey, is EC50 [nM] (cAMP) for Ac-IVLSLDVPIK[αMeL]K([γGlu-C16 diacid])KILLEQEKQKKQREQAETNVQILAQV-NH2 [SEQ ID NO 49] lower than 0.4 nM or not?
Ans. Not satisfied

Qu. hey, is EC50 [nM] (cAMP) for Pentanoyl-VLSLD[dV]PIK[αMeL]K([AEEA-AEEA-γGlu-C18 diacid])KILLEQEKQKKQREQAETNVQILAQV-NH2 [SEQ ID NO 124] lower than 0.4 nM or not?
Ans. Satisfied
